Reference source for all entries: patent US7723368B2

System Under Test: human BACE1 (Homo sapiens, UniProt P56817)
Sequence (P56817 46-501): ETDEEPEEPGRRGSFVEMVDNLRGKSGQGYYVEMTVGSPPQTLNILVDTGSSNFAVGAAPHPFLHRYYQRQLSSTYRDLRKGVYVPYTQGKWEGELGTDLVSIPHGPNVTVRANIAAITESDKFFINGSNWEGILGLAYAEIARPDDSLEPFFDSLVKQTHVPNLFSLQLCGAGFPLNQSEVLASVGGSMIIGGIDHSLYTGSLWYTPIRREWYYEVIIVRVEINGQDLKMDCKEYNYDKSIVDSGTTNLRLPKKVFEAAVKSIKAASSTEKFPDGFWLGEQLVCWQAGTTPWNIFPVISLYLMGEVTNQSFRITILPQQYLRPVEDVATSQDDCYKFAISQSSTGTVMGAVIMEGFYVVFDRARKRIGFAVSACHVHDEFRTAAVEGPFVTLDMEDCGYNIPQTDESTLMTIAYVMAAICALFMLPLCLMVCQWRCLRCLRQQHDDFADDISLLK
Experimental Details: BACE1 fluorescent kinetic assay (cleavage of peptide substrate WABC-6)
Format: biochemical
Condition Label: Activity Table, Examples 1-108; 10 nM enzyme, 25 μM substrate WABC-6, pH 4.5, room temperature
Measure Name: IC50

INSERT INTO assay_data (compound, measure_name, result) VALUES
  ('Cc1cccc(C2(c3ccc(OC(F)F)cc3)N=C(N)N(C)C2=O)c1 (stereo not shown) [Example 95]', 'IC50', '110 to 1000 nM'),
  ('C/C=C/c1cc([C@]2(c3ccc(OC(F)F)cc3)N=C(N)N(C)C2=O)ccc1F [Example 77A]', 'IC50', '> 1000 nM'),
  ('COCCC1CC(c2cccc(C3(c4ccc(OC(F)F)cc4)N=C(N)N(C)C3=O)c2)C1 (stereo not shown)', 'IC50', '110 to 1000 nM'),
  ('C/C=C\c1cc(C2(c3ccc(OC(F)F)cc3)N=C(N)N(C)C2=O)ccc1F (stereo not shown) [Example 75B]', 'IC50', '110 to 1000 nM'),
  ('C=CCCC(F)c1cccc(C2(c3ccc(OC(F)F)cc3)N=C(N)N(C)C2=O)c1 (stereo not shown)', 'IC50', '< 100 nM'),
  ('C=CCCCOc1cccc([C@@]2(c3ccc(OC(F)F)cc3)N=C(N)N(C)C2=O)c1 [Example 10C]', 'IC50', '< 100 nM'),
  ('CN1C(=O)C(c2ccc(OC(F)F)cc2)(c2cccc(CCCCC#N)c2)N=C1N (stereo not shown)', 'IC50', '< 100 nM'),
  ('CN1C(=O)C(c2ccc(OC(F)F)cc2)(c2cccc(C#CCCCCl)c2)N=C1N (stereo not shown) [Example 20B]', 'IC50', '< 100 nM'),
  ('CN1C(=O)C(c2ccc(OC(F)F)cc2)(c2cccc(NC(=O)c3ccccc3)c2)N=C1N (stereo not shown)', 'IC50', '110 to 1000 nM'),
  ('COc1ccc(C2(c3ccc(OC(F)F)cc3)N=C(N)N(C)C2=O)cc1C#N (stereo not shown)', 'IC50', '> 1000 nM');

For CCCCC(=O)Nc1cccc(C2(c3ccc(OC(F)F)cc3)N=C(N)N(C)C2=O)c1 (stereo not shown) , what is its reported IC50?
110 to 1000 nM

For CN1C(=O)C(c2ccc(OC(F)F)cc2)(c2ccc(OC(F)F)cc2)N=C1N , what is its reported IC50?
> 1000 nM

For Cc1cc(C2(c3ccc(OC(F)F)cc3)N=C(N)N(C)C2=O)ccc1F (stereo not shown) , what is its reported IC50?
110 to 1000 nM
